- Experimental target: Aldehyde dehydrogenase 1A1 (Homo sapiens)
- Assay protocol: qHTS Assay for Inhibitors of Aldehyde Dehydrogenase 1 (ALDH1A1)
- Condition parameters: Purified ALDH1A1, NADH fluorescence, propionaldehyde substrate; series mostly up to 75.3 µM
About 16,000 (7.3%) of roughly 220,000 compounds were called active. About 25% were inconclusive and are not listed. Calls come from the whole dose curve; as a rule, active = well fitted inhibition curve with a large enough effect (not every such curve was filed as active); inconclusive = small, poorly fitted or top-dose-only effect, or another doubt; inactive = no such curve, though single readings can be large or run the other way. What follows is part of a selection rich in actives, with near analogues and random picks from the rest.
Form entry, call: pick from T (active), F (inactive)

Molecule: CC1=C/C(=N\S(=O)(=O)c2ccccc2)C(C(C)C)=CC1=O
Experimental target: Aldehyde dehydrogenase 1A1 (Homo sapiens)
Cat: F
--
Molecule: C=CCn1c(COc2ccccc2F)nnc1SCC(=O)N1CC(=O)Nc2ccccc21
Experimental target: Aldehyde dehydrogenase 1A1 (Homo sapiens)
Cat: F
--
Molecule: Nn1c(Cc2cccc3ccccc23)nnc1SCC(=O)N1CC(=O)Nc2ccccc21
Experimental target: Aldehyde dehydrogenase 1A1 (Homo sapiens)
Cat: T
--
Molecule: CCNS(=O)(=O)c1ccc(NC(=O)Nc2cccc(OC)c2)cc1
Experimental target: Aldehyde dehydrogenase 1A1 (Homo sapiens)
Cat: F

Problem: Could you check what this test reported for O=C(O)/C=C/C(=O)NNc1ccc([N+](=O)[O-])cc1 ?
Result: T

Problem: Check the results log: what was the call for CN(C)C=NC(=O)c1cccn1-c1ncc(C(F)(F)F)cc1Cl ?
Result: F

Problem: Please let me know the test result on file for O=C(Nc1ccc([N+](=O)[O-])cc1)C1(c2ccccc2)CCOCC1 .
Result: F

Problem: What call does the record list for CCCC(=O)Nc1ccc2c(c1)nc1n2CCSC1 ?
Result: T

Problem: Which result was noted for this molecule in the test: CNC(=S)N1CCC(NC(=O)C(Cc2ccc(F)cc2)NC(C)=O)CC1 (stereo unspecified)
Result: F

Problem: What did the test return for COc1ccccc1N(CC(=O)Nc1ccc(C(F)(F)F)cc1)S(C)(=O)=O ?
Result: F

Problem: Which outcome did this test record for the molecule COc1cccc(NS(=O)(=O)c2ccc3[nH]cc(C(=O)NCCCOC(C)C)c(=O)c3c2)c1 ?
Result: T

Problem: I'd appreciate the recorded outcome for CC(NC(=O)Nc1ccc2c(c1)OCO2)c1ccncc1 (stereo unspecified) from this test.
Result: F

Problem: Recorded test outcome, item CC(C)(C)C1CCC(=NNC(=O)c2ccc(Br)o2)CC1 (stereo unspecified)
Result: F

Source of measurements: PubChem BioAssay AID1030
